The origin of these recorded values is patent US11497752B2.

# targetOrSystem: BRM (Homo sapiens)
# Sequence (P51531 whole entry): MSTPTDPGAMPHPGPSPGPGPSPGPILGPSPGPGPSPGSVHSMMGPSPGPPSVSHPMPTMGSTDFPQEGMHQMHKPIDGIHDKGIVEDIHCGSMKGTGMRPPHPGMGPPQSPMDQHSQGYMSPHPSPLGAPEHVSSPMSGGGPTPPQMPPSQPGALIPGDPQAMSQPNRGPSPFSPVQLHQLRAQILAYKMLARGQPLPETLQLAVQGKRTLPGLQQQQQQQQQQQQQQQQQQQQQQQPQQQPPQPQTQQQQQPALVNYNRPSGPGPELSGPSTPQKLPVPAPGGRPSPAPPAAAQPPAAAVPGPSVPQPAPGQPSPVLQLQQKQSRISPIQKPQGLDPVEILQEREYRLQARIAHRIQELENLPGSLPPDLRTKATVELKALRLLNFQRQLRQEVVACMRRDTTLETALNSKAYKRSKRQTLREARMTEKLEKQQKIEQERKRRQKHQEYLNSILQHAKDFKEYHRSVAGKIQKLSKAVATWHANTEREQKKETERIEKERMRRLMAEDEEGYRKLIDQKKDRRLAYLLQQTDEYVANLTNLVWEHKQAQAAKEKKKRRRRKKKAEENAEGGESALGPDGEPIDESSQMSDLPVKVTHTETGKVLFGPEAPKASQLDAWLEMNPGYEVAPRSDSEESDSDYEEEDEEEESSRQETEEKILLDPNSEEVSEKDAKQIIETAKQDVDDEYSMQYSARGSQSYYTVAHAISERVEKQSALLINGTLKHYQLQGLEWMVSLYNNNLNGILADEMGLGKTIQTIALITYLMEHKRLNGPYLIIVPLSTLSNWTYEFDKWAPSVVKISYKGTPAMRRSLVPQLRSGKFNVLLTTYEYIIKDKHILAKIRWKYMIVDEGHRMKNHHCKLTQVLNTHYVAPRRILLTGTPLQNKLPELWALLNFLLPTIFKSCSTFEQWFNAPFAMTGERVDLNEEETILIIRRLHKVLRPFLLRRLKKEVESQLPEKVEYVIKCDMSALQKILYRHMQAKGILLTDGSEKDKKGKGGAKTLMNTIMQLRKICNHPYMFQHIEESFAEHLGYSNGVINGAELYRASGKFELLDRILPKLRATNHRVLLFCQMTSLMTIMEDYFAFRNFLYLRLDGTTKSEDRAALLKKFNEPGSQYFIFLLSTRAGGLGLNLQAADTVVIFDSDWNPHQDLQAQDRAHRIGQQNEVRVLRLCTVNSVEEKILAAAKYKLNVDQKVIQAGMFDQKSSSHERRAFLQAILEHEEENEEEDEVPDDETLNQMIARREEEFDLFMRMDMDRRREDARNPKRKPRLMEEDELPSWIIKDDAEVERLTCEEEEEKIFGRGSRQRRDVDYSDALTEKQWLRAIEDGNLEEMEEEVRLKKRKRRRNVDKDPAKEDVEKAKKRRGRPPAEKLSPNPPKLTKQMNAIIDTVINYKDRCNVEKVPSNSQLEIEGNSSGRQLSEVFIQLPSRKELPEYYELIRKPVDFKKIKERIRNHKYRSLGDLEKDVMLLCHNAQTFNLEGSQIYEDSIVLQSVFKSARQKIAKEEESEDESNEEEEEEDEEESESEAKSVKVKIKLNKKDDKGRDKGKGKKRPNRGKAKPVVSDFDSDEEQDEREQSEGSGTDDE
# assayExplanation: ATPase catalytic activity of BRM (ADP-Glo in vitro biochemical assay)
# assayContext: Table 5
outcomeMeasure: BRM Max % Inhibition

Completed entries (count: 2):
CN(C)S(=O)(=O)c1cccc(C(=O)NCC(=O)Nc2nc(-c3ccccc3Br)cs2)c1	>80%
CSCC[C@H](NC(=O)c1cccc(S(=O)(=O)C(C)C)c1)C(=O)Nc1nc(-c2ccccc2)cs1	>80%

According to the records, this molecule "CN(C)S(=O)(=O)c1cccc(C(=O)NCC(=O)Nc2nc(-c3ccc4c(c3)OCCO4)cs2)c1" displays BRM Max % Inhibition of >80%

GET /value?item= "CN(C)S(=O)(=O)c1cccc(C(=O)NCC(=O)Nc2nc(-c3cccc(C#N)c3)cs2)c1" &field=BRM Max % Inhibition returns >90%

---

// IC50 collected for UniProt:P51532
Sequence (P51532 whole entry): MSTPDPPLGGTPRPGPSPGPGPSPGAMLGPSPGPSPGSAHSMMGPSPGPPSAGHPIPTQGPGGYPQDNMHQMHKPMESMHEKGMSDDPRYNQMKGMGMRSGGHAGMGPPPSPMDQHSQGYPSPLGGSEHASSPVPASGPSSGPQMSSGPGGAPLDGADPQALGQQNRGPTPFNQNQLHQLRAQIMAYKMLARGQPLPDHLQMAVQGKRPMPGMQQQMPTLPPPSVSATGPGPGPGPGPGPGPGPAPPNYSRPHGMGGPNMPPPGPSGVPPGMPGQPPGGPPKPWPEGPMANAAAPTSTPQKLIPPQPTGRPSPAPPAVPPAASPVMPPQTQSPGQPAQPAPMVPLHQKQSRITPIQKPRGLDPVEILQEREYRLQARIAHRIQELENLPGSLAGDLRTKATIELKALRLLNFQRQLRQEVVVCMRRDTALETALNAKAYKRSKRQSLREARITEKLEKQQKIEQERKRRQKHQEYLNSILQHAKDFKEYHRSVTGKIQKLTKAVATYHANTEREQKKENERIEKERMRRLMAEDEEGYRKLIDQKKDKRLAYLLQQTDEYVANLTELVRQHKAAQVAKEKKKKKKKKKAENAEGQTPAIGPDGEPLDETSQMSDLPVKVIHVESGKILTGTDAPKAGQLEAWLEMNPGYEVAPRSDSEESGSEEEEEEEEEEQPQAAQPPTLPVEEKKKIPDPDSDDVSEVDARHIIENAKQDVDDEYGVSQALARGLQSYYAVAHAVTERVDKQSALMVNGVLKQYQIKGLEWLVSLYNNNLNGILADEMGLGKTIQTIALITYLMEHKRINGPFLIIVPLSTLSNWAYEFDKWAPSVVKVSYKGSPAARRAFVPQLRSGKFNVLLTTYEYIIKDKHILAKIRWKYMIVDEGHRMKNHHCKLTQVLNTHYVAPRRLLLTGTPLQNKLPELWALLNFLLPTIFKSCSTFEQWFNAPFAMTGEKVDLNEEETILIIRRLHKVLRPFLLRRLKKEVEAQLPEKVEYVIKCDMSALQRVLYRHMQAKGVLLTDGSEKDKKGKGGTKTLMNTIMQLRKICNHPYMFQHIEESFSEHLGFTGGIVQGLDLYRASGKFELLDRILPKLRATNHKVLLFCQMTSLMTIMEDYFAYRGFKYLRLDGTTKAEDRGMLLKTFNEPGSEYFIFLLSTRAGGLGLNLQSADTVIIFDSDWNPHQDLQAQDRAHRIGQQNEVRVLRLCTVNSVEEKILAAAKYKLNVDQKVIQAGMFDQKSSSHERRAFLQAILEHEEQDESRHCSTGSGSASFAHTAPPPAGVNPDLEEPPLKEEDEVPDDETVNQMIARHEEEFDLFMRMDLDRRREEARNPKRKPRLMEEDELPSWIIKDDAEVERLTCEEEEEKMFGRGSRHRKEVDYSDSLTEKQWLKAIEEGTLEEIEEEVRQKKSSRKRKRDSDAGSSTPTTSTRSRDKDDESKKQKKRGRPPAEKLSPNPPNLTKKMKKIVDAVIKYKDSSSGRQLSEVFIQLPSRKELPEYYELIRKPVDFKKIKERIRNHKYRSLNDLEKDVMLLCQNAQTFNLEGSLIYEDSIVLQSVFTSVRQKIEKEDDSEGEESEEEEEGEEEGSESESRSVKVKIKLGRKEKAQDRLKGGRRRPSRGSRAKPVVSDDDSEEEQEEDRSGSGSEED

# count of solved cases: 6
NC[C@H]1CC[C@@H](c2cccc(-c3csc(NC(=O)CNC(=O)c4ccc(N)cc4)n3)c2)CC1	100 to 1000 nM
Nc1ccc(C(=O)NCC(=O)Nc2nc(C3CCCN(c4cccnc4)C3)cs2)cc1 (stereo not drawn)	100 to 1000 nM
Nc1ccc(C(=O)NCC(=O)Nc2nc(-c3cccc(N4CCOCC4)c3)cs2)cc1	100 to 1000 nM
CN(C)C(=O)c1ccc(-c2cccc(-c3csc(NC(=O)CNC(=O)c4ccc(N)cc4)n3)c2)cc1	100 to 1000 nM
CNC(=O)CN(C)c1cc(-c2cccc(-c3csc(NC(=O)CNC(=O)c4ccc(N)cc4)n3)c2)ccn1	< 100 nM
Nc1ccc(C(=O)NCC(=O)Nc2nc(-c3cccc(CCc4ccncc4)c3)cs2)cc1	100 to 1000 nM

Record "CNC(=O)c1cccc(-c2cccc(-c3csc(NC(=O)CNC(=O)c4ccc(N)cc4)n3)c2)c1" . Reported IC50: 100 to 1000 nM

Memo: "COC(=O)Cc1cc(-c2cccc(-c3csc(NC(=O)CNC(=O)c4ccc(N)cc4)n3)c2)ccn1" , reported IC50: < 100 nM

Measured IC50 of "CNC(=O)C(C)(C)n1ccc(-c2cccc(-c3csc(NC(=O)CNC(=O)c4ccc(N)cc4)n3)c2)n1" : < 100 nM

Record "Nc1ccc(C(=O)NCC(=O)Nc2nc(-c3cccc(COC4CCOCC4)c3)cs2)cc1" . Reported IC50: 100 to 1000 nM

---

# targetOrSystem: BRM (Homo sapiens)
# assayExplanation: ATPase catalytic activity of BRM (ADP-Glo in vitro biochemical assay)
# assayContext: Table 6
Overview of recorded BRM Max % Inhibition for various compounds

Illustrative cases are given below, each with its answer.
CN(C)CCNc1cc(-c2cccc(-c3csc(NC(=O)CNC(=O)c4ccc(N)cc4)n3)c2)ccn1	>90%
CS(=O)(=O)c1ccc(-c2cccc(-c3csc(NC(=O)CNC(=O)c4ccc(N)cc4)n3)c2)cc1	>50%
COc1cc(-c2cccc(-c3csc(NC(=O)CNC(=O)c4ccc(N)cn4)n3)c2)ccn1	>95%
Cc1ccc(-c2csc(NC(=O)CNC(=O)c3ccc(N)cc3)n2)cc1-c1ccncc1	>95%
CN(C)CCn1cc(-c2cccc(-c3csc(NC(=O)CNC(=O)c4ccc(N)cc4)n3)c2)ccc1=O	>95%

Value of BRM Max % Inhibition reported for the compound "COC(=O)C(C)(C)c1cc(-c2cccc(-c3csc(NC(=O)CNC(=O)c4ccc(N)cc4)n3)c2)ccn1" is >95%

The compound identified as "COC(=O)c1cc(-c2cccc(-c3csc(NC(=O)CNC(=O)c4ccc(N)cc4)n3)c2)ccn1" registered its BRM Max % Inhibition at >95%
